target-desc: Sigma receptor (Cavia porcellus)
experimental-protocol: Binding assay for the sigma receptor sites is performed by utilizing [3H]N,N-di-o-tolylguanidine ([3H]DTG) and guinea pig brain membrane suspensions
measured-attribute: IC50 (nM)
Give bare numbers, in nM.

// known answers, use as guide
smiles-data	target-desc	unit-descriptor	recorded-number
CCc1cccc(N(C)C(N)=Nc2cc(CC)cc(C(F)(F)F)c2Cl)c1	Sigma receptor (Cavia porcellus)	nM	200
CCc1cccc(N(C)C(N)=Nc2cccc(Cl)c2)c1	Sigma receptor (Cavia porcellus)	nM	44
CCc1cccc(NC(N)=Nc2cccc(Br)c2)c1	Sigma receptor (Cavia porcellus)	nM	10
CCc1cccc(N(C)C(N)=Nc2ccc(Cl)c(Cl)c2)c1	Sigma receptor (Cavia porcellus)	nM	39
CCc1cccc(N(C)C(N)=Nc2cccc(Br)c2)c1	Sigma receptor (Cavia porcellus)	nM	40
CCc1cccc(N(C)C(N)=Nc2cc(Br)cc(CC)c2Br)c1	Sigma receptor (Cavia porcellus)	nM	40
CCc1cccc(N(C)C(N)=Nc2ccccc2Cl)c1	Sigma receptor (Cavia porcellus)	nM	72
CCc1cccc(NC(N)=Nc2c(Cl)cccc2Cl)c1	Sigma receptor (Cavia porcellus)	nM	14
CCc1cccc(N(C)C(N)=Nc2cc(SC)cc(CC)c2Br)c1	Sigma receptor (Cavia porcellus)	nM	299
CCc1cccc(N(C)C(N)=Nc2cc(CC)cc(SC)c2Br)c1	Sigma receptor (Cavia porcellus)	nM	180

For each of the compounds below, note its IC50.
1. CCc1cccc(N(C)C(N)=Nc2cc(Br)cc(C(F)(F)F)c2Br)c1
2. CCc1cccc(NC(N)=Nc2ccc(Cl)cc2Cl)c1

Result:
224
37
